- Measurement Description: protein stability index of a GFP-peptide fusion (GPS, HEK-293T) (PSI 1-6); higher = more stable;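 also: 24-mer peptide tiles fused after GFP, lentivirally expressed, FACS-sorted into six equal bins by GFP/DsRed ratio, decoded by Illumina sequencing, PSI is the read-weighted mean bin number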
- Measurement Conditions: treatment: MLN4924 1 uM, 8 h; c terminus: a fixed tail appended
protein stability index: recorded values

FEKSRYETYIHLLAMKIKVGSDDL [PSD2]	2.55
NLPIIAKMAAVSKASGRFGLLQGT [SEPHS2]	2.25
PIRSRRALPPLRTRSKSDPVLHPS [FAM189A2]	4.94
EDDSMSVIEPVVENSGILQGKLIK [EFHC1]	5.45
HRWPSNMYLKQLAEYRKYIHSRKC [RHOBTB3]	3.19

What does the record list as protein stability index for SERAEVQRLEEQERRHREEKERRK [RSPH3] ?
5.67

// next record RVFLFQAPSKEEMLSWILRINLVA [PSD2]
2.7

Another: QNCKKKLGKLPPQYALELLTVYAW [OAS1]
2.25

What would you report for AQKTALLQDGRRKVHYLFPDGKEM [DPCD] ?
3.62

Same question for PSLGPALSTGPRGLCAMPQTGDAF [VENTX] please.
3.6

What would you report for TPKSGEPRVPEEAAQDRPMSPGDC [YJU2B] ?
5.42

THALAEWASRREAFAQRPSSAPDL [CDC25B] , same question.
4.01

Follow-up item: YDRVAQLDQLLHYRKKSAEFPDFY [CHGB]
2.8

Next: SWRTLAILVNLQGTVVFLLSLFIP [SLC22A15]
2.89

Subsequent entry: GPGIVGNVLVDPSARIGQNCSIGP [GMPPB]
3.81

For KDAALATALGDKKSLEGDLEDLKD [LMNB1] then?
5.89

What do we get for CQRERAFSVKFEVQAPRWGNPRAL [OAS1] ?
2.8

Follow-up item: AKLGTQAEKDRRLKKKHQLLEDAR [PPFIA4]
4.44

Try the sequence LDDRKNEEDGGADEHEHPLTSELD [MIA2]
5.26

Another sequence to look at: PRGQEGSRQDKPLSPAGSSQEAAD [YJU2B]
5.48

Hello, the source for this data is the supplement of paper PMC10567573, in case you need it.
